Test system: WA09 human embryonic stem (hES) cells
Assay: PLS-DA prediction of teratogenicity from secretome of treated hES cells (Example 9)
Details: DevTox pharmaceutical, high dose (H = 10x circulating dose)
quantity_name: % Ter (PLS-DA class probability teratogen)
Number, no unit, nothing else.

[
  {
    "compound": "CC1=C(/C=C/C(C)=C/C=C/C(C)=C\\C(=O)O)C(C)(C)CCC1",
    "value": 0.7
  },
  {
    "compound": "CN(Cc1cnc2nc(N)nc(N)c2n1)c1ccc(C(=O)N[C@@H](CCC(=O)O)C(=O)O)cc1 [Methotrexate]",
    "value": 0.58
  }
]

Okay, next one:
May I ask what % Ter (PLS-DA class probability teratogen) has been recorded for CN(C)CCOC(C)(c1ccccc1)c1ccccn1 (stereo not drawn) ?
0.62
